Assay notes: qHTS assay to identify small molecule antagonists of the retinoid acid receptor (RAR) signaling pathway - cell viability counter screen (AID 1159551); also: nearly all actives have a fitted effect of over 35% in size
Test context: C3RL4 cells viability, ATP luminescence (CellTiter-Glo), 6 h; series mostly up to 92.4 µM
Results filed as inconclusive are left out. Active and inactive are the calls of the source. Calls follow the shape of the dose curve; as a rule, active = well fitted cell-killing curve with a large enough effect in the repeat runs; inconclusive = weak or mixed curves, or effect the other way; inactive = flat fitted curve, though single readings scatter.
Classes used: Y (active), N (inactive)

[[record]]
compound = "[C-]1=CC=CC1.[Cl][Zr+2][Cl].c1cc[cH-]c1"
discrete_label = "N"

[[record]]
compound = "CCCCC(CC)COC(=O)c1ccccc1C(=O)OCC(CC)CCCC (stereo unspecified)"
discrete_label = "N"

[[record]]
compound = "CC(C)N(C(=O)SC/C(Cl)=C/Cl)C(C)C"
discrete_label = "N"

[[record]]
compound = "Cc1ccn2nc(S(=O)(=O)Nc3c(F)cccc3F)nc2n1"
discrete_label = "N"

[[record]]
compound = "c1ccc2nc(N3CCNCC3)ccc2c1"
discrete_label = "N"

[[record]]
compound = "CCCCn1cc[n+](C)c1.[Cl][Fe-]([Cl])([Cl])[Cl]"
discrete_label = "N"

[[record]]
compound = "CCC(C)Br (stereo unspecified)"
discrete_label = "N"

[[record]]
compound = "CCC1COC(Cn2cncn2)(c2ccc(Cl)cc2Cl)O1 (stereo unspecified)"
discrete_label = "N"

[[record]]
compound = "Clc1ccc(C(Cl)(Cl)Cl)cc1Cl"
discrete_label = "N"

[[record]]
compound = "COc1ccc(Cc2nccc3cc(OC)c(OC)cc23)cc1OC"
discrete_label = "N"

[[record]]
compound = "COCCC#N"
discrete_label = "N"

[[record]]
compound = "CC1CCCC1"
discrete_label = "N"

[[record]]
compound = "[Cl-].[Cl-].[Cl-].[Yb+3]"
discrete_label = "N"

[[record]]
compound = "CCOC(=O)Cc1ccccc1"
discrete_label = "N"

[[record]]
compound = "CCCCc1ccccc1"
discrete_label = "N"

[[record]]
compound = "N#Cc1sc2c(=O)c3ccccc3c(=O)c=2sc1C#N"
discrete_label = "Y"

[[record]]
compound = "CSC(C)(C)/C=N/O"
discrete_label = "N"

[[record]]
compound = "O=[N+]([O-])[O-].[Tl+]"
discrete_label = "N"

[[record]]
compound = "ClC(Cl)C(Cl)(Cl)Cl"
discrete_label = "N"

[[record]]
compound = "CCn1cc[n+](C)c1 (tested in a mixture with another compound)"
discrete_label = "N"

[[record]]
compound = "ClC1=C(Cl)[C@]2(Cl)[C@H]3[C@H]([C@@H]4C=C[C@H]3C4)[C@@]1(Cl)C2(Cl)Cl"
discrete_label = "N"


* * *

Assay notes: Human pregnane X receptor (PXR) small molecule agonists, qHTS cell viability counter screen (AID 1346977); also: nearly all actives have a fitted effect of over 50% in size
Test context: PXR-Luc HepG2 viability, CellTiter-Fluor, 24 h; series mostly up to 92.4 µM
Records with an inconclusive call do not appear. The source made the active and inactive calls. Calls follow the shape of the dose curve; as a rule, active = well fitted cell-killing curve with a large enough effect in the repeat runs; inconclusive = weak or mixed curves, or effect the other way; inactive = flat fitted curve, though single readings scatter.
Classes used: true = active, false = inactive

[[record]]
compound = "CNC(=O)O/N=C(\\C)C(C)S(C)(=O)=O (stereo not drawn)"
discrete_label = "false"

[[record]]
compound = "Cc1cc2c3c(c1)C(c1ccccc1)=N[C@@H](NC(=O)c1ccncc1)C(=O)N3CC2"
discrete_label = "false"

[[record]]
compound = "O=c1[nH]c2cc(Cl)ccc2n1C1CCNCC1"
discrete_label = "false"

[[record]]
compound = "NC1CCC(CC2CCC(N)CC2)CC1 (stereo not drawn)"
discrete_label = "false"

[[record]]
compound = "[Cl][Hg][c]1ccccc1"
discrete_label = "true"

[[record]]
compound = "CCCCON=O"
discrete_label = "false"

[[record]]
compound = "CCCCn1cc[n+](C)c1.[Cl][Fe-]([Cl])([Cl])[Cl]"
discrete_label = "false"

[[record]]
compound = "O=NN(CCO)CCO"
discrete_label = "false"

[[record]]
compound = "COC(=O)c1ccccc1S(=O)(=O)NC(=O)Nc1nc(C)nc(OC)n1"
discrete_label = "false"

[[record]]
compound = "Oc1cccc(Cl)c1Cl"
discrete_label = "false"

[[record]]
compound = "CC(=O)O.CC(=O)O.CC(=O)O.CC(=O)O.CC(=O)O.CC(=O)O.CC(=O)O.O.O.[Cr].[Cr].[Cr]"
discrete_label = "false"

[[record]]
compound = "CCCCC(CC)COC(=O)OOC(C)(C)C (stereo not drawn)"
discrete_label = "false"

[[record]]
compound = "Cc1ccn2nc(S(=O)(=O)Nc3c(F)cccc3F)nc2n1"
discrete_label = "false"

[[record]]
compound = "N#CSCc1ccccc1"
discrete_label = "false"

[[record]]
compound = "Cc1nn(-c2cc(NS(C)(=O)=O)c(Cl)cc2Cl)c(=O)n1C(F)F"
discrete_label = "false"

[[record]]
compound = "CCC(C)Nc1c([N+](=O)[O-])cc(C(C)(C)C)cc1[N+](=O)[O-] (stereo not drawn)"
discrete_label = "false"

[[record]]
compound = "CC1(C)C(C=C(Cl)Cl)C1C(=O)OC(C#N)c1ccc(F)c(Oc2ccccc2)c1 (stereo not drawn)"
discrete_label = "false"

[[record]]
compound = "ClC1=C(Cl)[C@]2(Cl)[C@H]3[C@H]([C@@H]4C=C[C@H]3C4)[C@@]1(Cl)C2(Cl)Cl"
discrete_label = "false"

[[record]]
compound = "Nc1ccccc1-c1ccccc1"
discrete_label = "false"

[[record]]
compound = "CSC(=O)c1c(C(F)F)nc(C(F)(F)F)c(C(=O)SC)c1CC(C)C"
discrete_label = "false"

[[record]]
compound = "CC(C)N(C(=O)SC/C(Cl)=C/Cl)C(C)C"
discrete_label = "false"

[[record]]
compound = "O=P(Cl)(Cl)Cl"
discrete_label = "false"

[[record]]
compound = "COC(=O)C(C)N(C(=O)c1ccco1)c1c(C)cccc1C (stereo not drawn)"
discrete_label = "false"

[[record]]
compound = "Cc1cnc2c(C(=O)O)c(Cl)ccc2c1"
discrete_label = "false"

[[record]]
compound = "CC(C)C(Br)C(=O)NC(N)=O (stereo not drawn)"
discrete_label = "false"

[[record]]
compound = "CC1(C)[C@H](/C=C2\\CCSC2=O)[C@@H]1C(=O)OCc1coc(Cc2ccccc2)c1"
discrete_label = "false"

[[record]]
compound = "C=CC(=C)C"
discrete_label = "false"

[[record]]
compound = "Nc1c(Cl)c(Cl)c(Cl)c(Cl)c1Cl"
discrete_label = "false"

[[record]]
compound = "CNC(=O)CSP(=O)(OC)OC"
discrete_label = "false"

[[record]]
compound = "COC(=O)c1cc(Oc2ccc(Cl)cc2Cl)ccc1[N+](=O)[O-]"
discrete_label = "false"

[[record]]
compound = "COc1cnc(OC)n2nc(NS(=O)(=O)c3c(OCC(F)F)cccc3C(F)(F)F)nc12"
discrete_label = "false"

[[record]]
compound = "CC#C[C@]1(O)CC[C@H]2[C@@H]3C[C@H](C)C4=CC(=O)CC[C@]4(C)[C@H]3CC[C@@]21C"
discrete_label = "false"

[[record]]
compound = "CC(O)C(=O)[O][Hg][c]1ccccc1 (stereo not drawn)"
discrete_label = "true"

[[record]]
compound = "CC[C@H](C)[C@H]1O[C@]2(C=C[C@@H]1C)C[C@@H]1C[C@@H](C/C=C(\\C)[C@@H](O[C@H]3C[C@H](OC)[C@@H](O[C@H]4C[C@H](OC)[C@@H](NC)[C@H](C)O4)[C@H](C)O3)[C@@H](C)/C=C/C=C3\\CO[C@@H]4[C@H](O)C(C)=C[C@@H](C(=O)O1)[C@]34O)O2"
discrete_label = "true"

[[record]]
compound = "Nc1nc(N)nc(Cl)n1"
discrete_label = "false"

[[record]]
compound = "COC(=O)N(OC)c1ccccc1COc1ccn(-c2ccc(Cl)cc2)n1"
discrete_label = "true"

[[record]]
compound = "[C-]1=CC=CC1.[Cl][Zr+2][Cl].c1cc[cH-]c1"
discrete_label = "false"

[[record]]
compound = "CCCCn1cc[n+](C)c1 (tested in a mixture with another compound)"
discrete_label = "false"


* * *

Assay notes: qHTS assay to identify small molecule antagonists of the thyroid receptor (TR) signaling pathway (AID 743065); also: nearly all actives have a fitted effect of over 55% in size
Test context: GH3.TRE-Luc, T3-stimulated luciferase inhibition, 23.5 h; series mostly up to 70.3 µM
Records with an inconclusive call do not appear. Activity calls are given as the source filed them. The call rests on the fitted dose curve; in most records, active means well fitted inhibition curve with a large enough effect in the repeat runs; inconclusive means weak or mixed curves; inactive means no such curve, though single readings can be large or run the other way.
Classes used: 1 (yes) (active), 0 (no) (inactive)

[[record]]
compound = "CC1CCCC1"
discrete_label = "0 (no)"

[[record]]
compound = "C=C(C)C(=O)[O][Sn]([CH2]CCC)([CH2]CCC)[CH2]CCC"
discrete_label = "1 (yes)"

[[record]]
compound = "C=CC(=O)[O][Sn]([CH2]CCC)([CH2]CCC)[CH2]CCC"
discrete_label = "1 (yes)"

[[record]]
compound = "CC(C)Br"
discrete_label = "0 (no)"

[[record]]
compound = "CCOC(=O)Cc1ccccc1"
discrete_label = "0 (no)"

[[record]]
compound = "NC(=O)C(Cl)Cl"
discrete_label = "0 (no)"

[[record]]
compound = "Oc1cc(Cl)c(Cl)c(Cl)c1Cl"
discrete_label = "1 (yes)"

[[record]]
compound = "CCCCON=O"
discrete_label = "0 (no)"

[[record]]
compound = "ClCBr"
discrete_label = "0 (no)"

[[record]]
compound = "CCCCn1cc[n+](C)c1.[Cl][Fe-]([Cl])([Cl])[Cl]"
discrete_label = "0 (no)"

[[record]]
compound = "CC1(C)[C@H](/C=C2\\CCSC2=O)[C@@H]1C(=O)OCc1coc(Cc2ccccc2)c1"
discrete_label = "1 (yes)"

[[record]]
compound = "CCC(C)Br (configuration not stated)"
discrete_label = "0 (no)"

